Hello, the source for this data is patent US5672472A, in case you need it.

- Measured on: ras 47-mer stem/loop RNA
- Test: Gel-shift assay of random 2'-O-methyl oligonucleotide sets binding to ras RNA target
- Experimental conditions: Table 3; 2'-O-methyl sets; ras RNA about 10 pM; 100 mM NaCl, 10 mM MgCl2; 4 h at 37° C.; read-out: KD (set KD)
Readout name: Kd (µM)
Numbers only; they are read as µM.

ras 47-mer stem/loop RNA Kd of NNNNCNNNN [NNNNXNNNN X=C] is 10

ras 47-mer stem/loop RNA Kd of NNNNCNCNN [NNNNCNXNN X=C] is 4

ras 47-mer stem/loop RNA Kd of NNCNCNCNN [NNXNCNCNN X=C] is 0.5

ras 47-mer stem/loop RNA Kd of NNNNANNNN [NNNNXNNNN X=A] is 22

* * *

- Measured on: ras 47-mer stem/loop RNA
- Test: Gel-shift assay of random 2'-O-methyl oligonucleotide sets binding to ras RNA target
- Experimental conditions: Table 3; 2'-O-methyl sets; ras RNA about 10 pM; 100 mM NaCl, 10 mM MgCl2; 4 h at 37° C.; read-out: KD (set KD)
Assign Kd to each entry below.

ras 47-mer stem/loop RNA Kd of NNNNCNGNN [NNNNCNXNN X=G] is > 10 µM

ras 47-mer stem/loop RNA Kd of NNNNGNNNN [NNNNXNNNN X=G] is > 100 µM

ras 47-mer stem/loop RNA Kd of NNNNCNANN [NNNNCNXNN X=A] is > 10 µM
